// reported TGI for each item listed
Tested on: NCI-H522 lung
Assay procedure: NCI tumour cell line growth inhibition, 48 h
Give the value in µM but do not write µM after it.

>  <Compound>
COc1cc(C2c3cc4c(cc3[C@@H](Nc3cccc(O)c3)C3COC(=O)[C@H]23)OCO4)cc(OC)c1O (some centres not stated)

>  <TGI, µM>
5.51

$$$$

Exercise: Param readout = TGI; param system = NCI-H522 lung; param query = `O=C1O/C(=C\c2ccc(O)cc2)C(c2ccc(O)c(Cl)c2)=C1Br` ; response: value
Solution: 20.5

Exercise: Param readout = TGI; param system = NCI-H522 lung; param query = `N#Cc1nnc2c3c(-c4ccc(Cl)cc4)c(C#N)c(=O)[nH]c3nn2c1N` ; response: value
Solution: 6.11

Exercise: Param readout = TGI; param system = NCI-H522 lung; param query = CC(C)[Si]1(C(C)C)OCC2OC(n3cnc4c(N)ncnc43)C(N)C2O[Si](C(C)C)(C(C)C)O1 (configuration not stated) ; response: value
Solution: 26.4

###

Test system: OVCAR-3 ovarian
Assay procedure: NCI tumour cell line growth inhibition, 48 h
Lab note: compare TGI against 30 µM. Equal or greater, write satisfied. Smaller, write not satisfied.

>  <Compound>
O=C(CCCN1CCc2[nH]c3cc(F)ccc3c2C1)c1ccc(F)cc1

>  <Cat>
not satisfied

$$$$
>  <Compound>
CCOC(=O)C(Cc1c(-c2[nH]c3ccccc3c2CC(NC(=O)CNC(C)=O)C(=O)OCC)[nH]c2ccccc12)NC(=O)CNC(C)=O (stereo unspecified)

>  <Cat>
satisfied

$$$$
>  <Compound>
O=C(Cc1nc2ccc([N+](=O)[O-])cc2[nH]c1=O)C(=O)Nc1cc(Cl)c(Cl)cc1Cl

>  <Cat>
satisfied

$$$$
>  <Compound>
CCc1nc(N)nc(N)c1-c1ccc([N+](=O)[O-])c(Cl)c1

>  <Cat>
satisfied

$$$$

Next item in the queue.
Exercise: Quick check, TGI >= 30 µM? `COc1ccc(C[C@H]2COC(=O)[C@@H]2Cc2cc(OC)c(OC)c(OC)c2)cc1OC`
Solution: satisfied

###

System: A498 renal
Assay procedure: NCI tumour cell line growth inhibition, 48 h
// reported TGI for each item listed
Give the value in µM but do not write µM after it.

Exercise: # TGI lookup, item CC1(C)CC2(C)OC2C2(C1)N=NC(=Nc1ccccc1)O2 (centres undefined)
Solution: 34.8

Exercise: # TGI lookup, item COc1cc(C2c3cc4c(cc3[C@@H](Nc3cccc(O)c3)C3COC(=O)[C@H]23)OCO4)cc(OC)c1O (some centres undefined)
Solution: 5.9

Exercise: # TGI lookup, item COc1ccc(N(Cc2cc(OC)c(OC)c(OC)c2)C2OC(=O)c3ccccc32)cc1 (centres undefined)
Solution: 1.61

Exercise: # TGI lookup, item CCOC(=O)C1=C(c2ccccc2)N(Cc2ccccc2)C2(O)C=CC(=O)C3C(=O)N(c4ccccc4)C(=O)C132 (centres undefined)
Solution: 3.12

###

// reported TGI for each item listed
Tested on: SF-268 CNS
Assay procedure: NCI tumour cell line growth inhibition, 48 h
Give the value in µM but do not write µM after it.

>  <Compound>
CC1(C)CC2(C)OC2C2(C1)N=NC(=Nc1ccccc1)O2 (stereo not given)

>  <Measured target>
SF-268 CNS

>  <Recorded measurement>
19.1

$$$$

Exercise: # TGI lookup, item COc1cc(C2c3cc4c(cc3[C@@H](Nc3cccc(O)c3)C3COC(=O)[C@H]23)OCO4)cc(OC)c1O (stereo not given in full)
Solution: 14.1
